- system: T1, CXCR4 D187E (human, UniProt P61073-1 1-352, D187E)
- T1 construct: human CXCR4, isoform 1 or b; source: 293T cells, transiently transfected (pcDNA3.1 CXCR4-IRES-eGFP), on cells
- T1 sequence (P61073 whole entry D187E, canonical isoform): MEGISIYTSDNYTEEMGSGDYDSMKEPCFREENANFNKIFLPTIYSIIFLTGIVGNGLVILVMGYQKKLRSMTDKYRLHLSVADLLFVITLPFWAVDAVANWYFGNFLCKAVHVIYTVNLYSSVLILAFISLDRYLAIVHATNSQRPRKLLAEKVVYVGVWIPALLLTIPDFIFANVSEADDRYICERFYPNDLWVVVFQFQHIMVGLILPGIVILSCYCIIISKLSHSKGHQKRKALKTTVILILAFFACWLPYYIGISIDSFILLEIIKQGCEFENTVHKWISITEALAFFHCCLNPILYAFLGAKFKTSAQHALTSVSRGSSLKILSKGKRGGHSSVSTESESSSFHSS
- run_description: flow cytometry on cells; 12G5 antibody competition on 293T cells transiently transfected with CXCR4 wt or mutants (IRES-eGFP vector), eGFP-positive cells gated; serially diluted peptide with a constant concentration of CXCR4 antibody clone 12G5, 2 h; bound antibody read; IC50 by nonlinear regression
- condition_details: one partner purified
measured_metric: pIC50
A value of pIC50 is the negative decimal logarithm of a concentration given in moles per litre.

// lookup pIC50 for LVRYTKKVPQVSTPTL (source: synthetic peptide (Fmoc solid-phase synthesis, HPLC-purified)) [EPI-X4 (Alb408-423)]
5.07
